growth values by entry
System: SR leukemia
protocol text: NCI-60 one-dose screen, 48 h (100 = growth as untreated, 0 = no growth, -100 = all killed)
settings: 10 µM unless noted
Compounds without any hit were thinned out: in the full panel of roughly 83,000, 20% have a hit.

[
  {
    "compound": "Cc1ccccc1-c1cc(Cc2ccc(F)cc2)c(=O)[nH]n1",
    "unit abbrev": "%",
    "growth": -21.2
  },
  {
    "compound": "Fc1cc(C2=NNC(c3ccc[nH]3)C2)ccc1-n1ccc(C(F)(F)F)n1 (configuration not stated)",
    "unit abbrev": "%",
    "growth": 77.9
  },
  {
    "compound": "Cc1c(C(=O)NO)sc2ncnc(Nc3ccc(NC(=S)Nc4ccccc4)cc3)c12",
    "unit abbrev": "%",
    "growth": 110
  },
  {
    "compound": "COc1ccc(C2=C(c3ccccc3)c3ccc(OC(C)=O)cc3OC2(C)C)cc1",
    "unit abbrev": "%",
    "growth": 41.2
  },
  {
    "compound": "c1ccc(-c2nnc(Nc3ccc4c(c3)OCCO4)o2)c(NCc2ccncc2)c1",
    "unit abbrev": "%",
    "growth": 10.9
  },
  {
    "compound": "CCN(CC)CCCC(C)Nc1cc(-c2cccc(OC(F)(F)F)c2)nc2ccc(N3CCCC3)cc12 (configuration not stated)",
    "unit abbrev": "%",
    "growth": -31.6
  },
  {
    "compound": "COc1cc(C2CC(c3cccc(Nc4ccncc4)c3)=NN2c2ccccc2)cc(OC)c1OC (configuration not stated)",
    "unit abbrev": "%",
    "growth": 2.93
  },
  {
    "compound": "COc1ccccc1OCC(=O)N1CCCCCC1",
    "unit abbrev": "%",
    "growth": 95.1
  },
  {
    "compound": "COc1cc(-c2nc3sccn3c2-c2ccnc(NCCNS(=O)(=O)c3ccc(F)cc3)n2)ccc1F",
    "unit abbrev": "%",
    "growth": 8.1
  },
  {
    "compound": "Cc1ccc(C2CC(c3cccc(Nc4ccncc4)c3)=NN2c2ccc(Cl)cc2)cc1 (configuration not stated)",
    "unit abbrev": "%",
    "growth": -12.4
  },
  {
    "compound": "NC(=S)N/N=C/c1ccc(OC(=O)COc2cc(Cl)c(Cl)cc2Cl)cn1",
    "unit abbrev": "%",
    "growth": 1.38
  },
  {
    "compound": "COc1ccc(C(O)c2cc3c(N)c(C(=O)Nc4cccc(Br)c4C)sc3nc2C)cc1 (configuration not stated)",
    "unit abbrev": "%",
    "growth": 1.86
  },
  {
    "compound": "Cc1cc(C)c(C=O)c(C)c1",
    "unit abbrev": "%",
    "growth": 105
  },
  {
    "compound": "COc1ccc2c(Nc3ccc(NS(C)(=O)=O)cc3)c3ccccc3nc2c1",
    "unit abbrev": "%",
    "growth": -11.6
  },
  {
    "compound": "O=C(Nc1ccc2ncnc(Nc3ccc(Oc4cccc(F)c4)c(Cl)c3)c2c1)c1ccc(CNCCO)cc1",
    "unit abbrev": "%",
    "growth": 5.98
  },
  {
    "compound": "CN1CCN(Cc2ccc(NC(=O)c3cncc(C#Cc4cnccc4C(F)(F)F)c3)cc2C(F)(F)F)CC1",
    "unit abbrev": "%",
    "growth": 37.3
  },
  {
    "compound": "CCCc1cc2c(cc1Br)OCO2",
    "unit abbrev": "%",
    "growth": 111
  },
  {
    "compound": "CC(=O)N1c2ccccc2NC2=C(C(=O)N(Cc3ccccc3)C2(C)C)C1c1ccco1 (configuration not stated)",
    "unit abbrev": "%",
    "growth": 23.3
  },
  {
    "compound": "CC(=O)N1N=C(c2cccc(Nc3ccncc3)c2)CC1c1ccc2c(c1)OCO2 (configuration not stated)",
    "unit abbrev": "%",
    "growth": 31.5
  },
  {
    "compound": "COc1cc(NCC(O)CN(CC(C)C)CC(C)C)c2nc(C)ccc2c1 (configuration not stated)",
    "unit abbrev": "%",
    "growth": 102
  },
  {
    "compound": "O=C(Nc1ccc2cc3ccc(NC(=O)NC4CCCCC4)cc3nc2c1)NC1CCCCC1",
    "unit abbrev": "%",
    "growth": -0.865
  },
  {
    "compound": "Nc1nc(N)nc(NCc2ccccc2)n1",
    "unit abbrev": "%",
    "growth": 89
  },
  {
    "compound": "COc1ccc(/C=C/C(=O)c2ccc(Nc3ncnc4ccccc34)cc2)cc1OC",
    "unit abbrev": "%",
    "growth": 16.7
  },
  {
    "compound": "[2H]C1([2H])NC([2H])([2H])C([2H])([2H])N(c2ccc(Nc3ncc4cc(C(=O)N(C)C)n(C5CCCC5)c4n3)nc2)C1([2H])[2H]",
    "unit abbrev": "%",
    "growth": 39.8
  },
  {
    "compound": "CCc1nc(C)cn1C(=O)OCc1nc2nc(Cl)nc(N3CCOCC3)c2[nH]1",
    "unit abbrev": "%",
    "growth": -16.1
  },
  {
    "compound": "CC(c1ccccc1)n1ccnc1CO (configuration not stated)",
    "unit abbrev": "%",
    "growth": 104
  },
  {
    "compound": "COc1ccc(NC(=O)c2sc3nc(C)c(C(O)c4ccc(OC)cc4)cc3c2N)cc1 (configuration not stated)",
    "unit abbrev": "%",
    "growth": 4.21
  },
  {
    "compound": "COC(=O)N[C@H]1CCc2cc(OC)c(OC)c(OC)c2-c2ccc(SC)c(=O)cc21",
    "unit abbrev": "%",
    "growth": 3.05
  },
  {
    "compound": "O=C(CCN1CCCC1)Nc1ccc2c(NCc3ccc(F)cc3)c3ccccc3nc2c1",
    "unit abbrev": "%",
    "growth": -13.2
  },
  {
    "compound": "Cc1ccc(O)c(C(=O)O)c1",
    "unit abbrev": "%",
    "growth": 101
  },
  {
    "compound": "Clc1ccc(C2CC(c3cccc(Nc4ccncc4)c3)=NN2c2cc(Cl)cc(Cl)c2)cc1 (configuration not stated)",
    "unit abbrev": "%",
    "growth": 6.05
  },
  {
    "compound": "COc1ccc(NC(=O)c2sc3nc(C)c(C(=O)CCc4cccc(OC)c4)cc3c2N)cc1",
    "unit abbrev": "%",
    "growth": 20.4
  },
  {
    "compound": "CCNC(=O)c1[nH]cc(-c2ccc(OC)cc2)c1-c1cc(OC)c(OC)c(OC)c1",
    "unit abbrev": "%",
    "growth": 19.5
  },
  {
    "compound": "C#CC(=O)Nc1cccc2c1cc(C)n2-c1nc2c(c(NCc3ccccc3)n1)CCCC2",
    "unit abbrev": "%",
    "growth": -32.2
  },
  {
    "compound": "O=C(O)c1cn(C2CC2)c2cc(N3CCN(C(=O)C[n+]4cccc5ccccc54)CC3)c(F)cc2c1=O",
    "unit abbrev": "%",
    "growth": 15.6
  },
  {
    "compound": "COc1cccc(C(Cc2ccccc2)Nc2ccccc2)c1OC (configuration not stated)",
    "unit abbrev": "%",
    "growth": 102
  },
  {
    "compound": "CC(C)(C#N)N1CCN(c2ccccc2Cl)CC1",
    "unit abbrev": "%",
    "growth": 101
  },
  {
    "compound": "Cc1ccc(-c2csc(/N=C3\\C(=O)Nc4ccccc43)n2)cc1",
    "unit abbrev": "%",
    "growth": -30.2
  },
  {
    "compound": "Cn1c(COC(=O)NCCn2ccnc2)nc2c(N3CCOCC3)nc(-c3ccccc3)nc21",
    "unit abbrev": "%",
    "growth": 1.63
  },
  {
    "compound": "O=C(CCN1CCCC1)Nc1ccc2c(Nc3ccccc3)c3ccccc3nc2c1",
    "unit abbrev": "%",
    "growth": -14.9
  },
  {
    "compound": "CN1CCN(c2ccc(NC3=C(Cl)C(=O)c4ncccc4C3=O)cc2C#N)CC1",
    "unit abbrev": "%",
    "growth": 3.52
  },
  {
    "compound": "O=C1CCC(NC(=S)Nc2ccccc2)N1 (configuration not stated)",
    "unit abbrev": "%",
    "growth": 93.8
  }
]
